SYSTEM_UNDER_TEST: T1, Soluble ASGR-1 (human, UniProt P07306 62-291, biotinylated)
T1 construct: Soluble recombinant protein; also called recombinant, soluble ASGR-1 biotinylated protein
T1 sequence: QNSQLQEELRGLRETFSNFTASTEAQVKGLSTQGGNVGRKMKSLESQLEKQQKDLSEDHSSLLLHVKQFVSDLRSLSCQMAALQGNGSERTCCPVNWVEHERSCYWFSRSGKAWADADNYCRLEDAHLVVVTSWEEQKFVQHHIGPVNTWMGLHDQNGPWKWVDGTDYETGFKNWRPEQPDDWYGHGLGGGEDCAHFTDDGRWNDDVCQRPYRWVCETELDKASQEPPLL
ASSAY_NOTES: limited antigen binding assay; biotinylated soluble ASGR-1 coated at 2.5 ng/mL on LumAvidin beads, FACS
The binders listed here are annotated with their FACS Geomean.
Give the value in FACS Geomean but do not write FACS Geomean after it.

Below: 2 binders and their reported FACS Geomean.
{"BINDER": "176H4 (antibody, V domains shown, Tested as hybridoma supernatant at normalized concentration) VH: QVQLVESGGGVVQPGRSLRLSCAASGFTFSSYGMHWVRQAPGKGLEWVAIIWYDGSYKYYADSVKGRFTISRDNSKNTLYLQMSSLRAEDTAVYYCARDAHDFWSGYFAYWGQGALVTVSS VL: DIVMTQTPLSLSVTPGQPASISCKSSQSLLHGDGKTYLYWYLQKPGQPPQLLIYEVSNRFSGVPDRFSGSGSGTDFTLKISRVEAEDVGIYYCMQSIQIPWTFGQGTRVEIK", "ASSAY_READOUT": "FACS Geomean", "UNITS_LABEL": "FACS Geomean", "MEASURED_VALUE": 29400}
{"BINDER": "4B1 (antibody, V domains shown, Tested as hybridoma supernatant at normalized concentration) VH: QVQLQESGPGLVKPSETLSLTCSVSGDSISSYSWSWIRQPAGKGLEWIGRIYTSGSTNYIPSLKSRITMSVDTSKKQFSLKLSSVTAADTAVYYCARDLKSSGCLFFDYWGQGTLVTVSS VL: DIQMTQSPSSLSASVGDRVTITCRASHTIRTYLNWYQQKPGKAPKLLIYAASSLQSGVPSRINGSGSGTDFTLTITNLQPEDFATYYCQQSYNISFTFGPGTKVDIK", "ASSAY_READOUT": "FACS Geomean", "UNITS_LABEL": "FACS Geomean", "MEASURED_VALUE": 10100}

Notebook: 197G3 (antibody, V domains shown, Tested as hybridoma supernatant at normalized concentration) VH: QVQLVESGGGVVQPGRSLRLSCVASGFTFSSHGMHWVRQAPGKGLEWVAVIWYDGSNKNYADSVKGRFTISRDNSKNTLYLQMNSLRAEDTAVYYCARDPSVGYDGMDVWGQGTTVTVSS VL: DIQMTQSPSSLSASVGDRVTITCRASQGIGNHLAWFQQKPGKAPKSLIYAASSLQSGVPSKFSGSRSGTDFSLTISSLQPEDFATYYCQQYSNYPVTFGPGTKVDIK , FACS Geomean read as 17700
